target: Hypoxanthine-guanine phosphoribosyltransferase (Homo sapiens, UniProt P00492); assay: Inhibition of recombinant human HGPRT expressed in Escherichia coli Sphi606 cells by spectrophotometric analysis
Sequence (P00492 whole entry): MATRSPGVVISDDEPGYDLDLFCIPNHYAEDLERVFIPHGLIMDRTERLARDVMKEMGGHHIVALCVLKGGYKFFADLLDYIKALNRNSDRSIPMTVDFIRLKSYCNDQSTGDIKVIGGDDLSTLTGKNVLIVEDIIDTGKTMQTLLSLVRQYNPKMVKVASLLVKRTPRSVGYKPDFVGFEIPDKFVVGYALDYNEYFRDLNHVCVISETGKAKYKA
pKi: −log10 of the molar value.
readout.type: pKi

> print(dat)
                                   molecule  readout.type  relation.sign  experimental.result
1  O=c1[nH]cnc2c1ncn2C[C@H](CF)OCCP(=O)(O)O           pKi              ≤                 3.70
2  O=c1[nH]cnc2c1ncn2CC(CF)OCCP(=O)(O)O (racemic)           pKi              =                 5.27
3  O=c1[nH]cnc2c1ncn2C[C@@H](CF)OCCP(=O)(O)O           pKi              =                 5.80
4  Nc1nc2c(ncn2C[C@@H](CF)OCCP(=O)(O)O)c(=O)[nH]1           pKi              =                 7.00
5  O=c1[nH]cnc2c1ncn2C[C@@H](CF)OCP(=O)(O)O           pKi              ≤                 3.60
6  Nc1nc2c(ncn2C[C@H](CF)OCCP(=O)(O)O)c(=O)[nH]1           pKi              =                 5.33
